Assay: protein stability index of a GFP-peptide fusion (GPS, HEK-293T) (PSI 1-6); higher = more stable;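 note: 24-mer peptide tiles fused after GFP, lentivirally expressed, FACS-sorted into six equal bins by GFP/DsRed ratio, decoded by Illumina sequencing, PSI is the read-weighted mean bin number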
Settings: treatment: MLN4924 1 uM, 8 h; c terminus: a fixed tail appended
The sequences listed here are annotated with their protein stability index.
Give a plain numeric answer without units written out.

Consider the worked cases shown below.
[
  {
    "sequence-content": "LLSFLLLMDYIGINLATMNSCINP [EDNRA]",
    "measured-endpoint": "protein stability index",
    "recorded-result": 4.18
  },
  {
    "sequence-content": "TARMEMLIEELYAFMPARSQDPKK [CBY2]",
    "measured-endpoint": "protein stability index",
    "recorded-result": 2.94
  },
  {
    "sequence-content": "LIGFCMFVLSLVKKHYRLQFYMFG [CDS2]",
    "measured-endpoint": "protein stability index",
    "recorded-result": 2.47
  }
]

Report measured protein stability index; entry is VRHLEEENRGIVVLGINRAYGKNS [AUH] 3.31

Report measured protein stability index; entry is TSYKPYLNRDEEIIKQLQKGVQQK [DENND6A] 3.27

Report measured protein stability index; entry is IYKKYALQSAAGKDAAKQIAWIKD [PDS5B] 2.61
